# TARGET_OR_SYSTEM: human mGluR4 (Homo sapiens, UniProt Q14833)
# Sequence (Q14833 33-912): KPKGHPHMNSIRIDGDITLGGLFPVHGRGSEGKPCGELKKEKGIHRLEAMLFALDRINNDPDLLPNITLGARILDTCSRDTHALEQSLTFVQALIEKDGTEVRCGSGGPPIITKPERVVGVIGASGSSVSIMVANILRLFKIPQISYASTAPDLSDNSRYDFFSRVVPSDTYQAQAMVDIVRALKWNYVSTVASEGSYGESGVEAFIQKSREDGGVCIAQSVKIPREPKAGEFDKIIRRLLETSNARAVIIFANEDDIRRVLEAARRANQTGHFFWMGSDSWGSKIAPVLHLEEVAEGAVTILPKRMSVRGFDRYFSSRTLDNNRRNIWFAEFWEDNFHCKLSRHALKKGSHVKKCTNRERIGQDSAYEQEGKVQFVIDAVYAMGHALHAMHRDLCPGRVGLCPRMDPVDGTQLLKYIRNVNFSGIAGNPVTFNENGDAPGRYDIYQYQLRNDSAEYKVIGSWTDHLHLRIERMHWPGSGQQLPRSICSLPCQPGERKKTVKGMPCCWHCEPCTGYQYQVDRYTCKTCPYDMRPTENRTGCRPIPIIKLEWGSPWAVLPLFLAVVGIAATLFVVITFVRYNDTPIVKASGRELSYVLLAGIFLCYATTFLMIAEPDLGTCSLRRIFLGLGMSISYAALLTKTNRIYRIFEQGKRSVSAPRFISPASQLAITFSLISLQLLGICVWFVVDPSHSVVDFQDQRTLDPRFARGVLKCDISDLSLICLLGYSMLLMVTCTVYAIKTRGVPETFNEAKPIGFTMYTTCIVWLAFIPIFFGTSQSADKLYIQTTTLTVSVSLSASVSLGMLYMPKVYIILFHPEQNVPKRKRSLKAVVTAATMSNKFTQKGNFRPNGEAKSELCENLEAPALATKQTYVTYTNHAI
# EXPERIMENT_DESCRIPTION: calcium mobilization potency assay
TEST_READOUT: EC50 (nM)
Give the quantity in nM, number only.

API: value(readout=EC50, system=human mGluR4 (Homo sapiens, UniProt Q14833)) for record O=C(Nc1ccccn1)C12CC1/C(=N\O)c1ccccc1O2 (stereo not shown) 870

---

# TARGET_OR_SYSTEM: rat mGluR1 (Rattus norvegicus)
# Sequence (P23385 19-1199): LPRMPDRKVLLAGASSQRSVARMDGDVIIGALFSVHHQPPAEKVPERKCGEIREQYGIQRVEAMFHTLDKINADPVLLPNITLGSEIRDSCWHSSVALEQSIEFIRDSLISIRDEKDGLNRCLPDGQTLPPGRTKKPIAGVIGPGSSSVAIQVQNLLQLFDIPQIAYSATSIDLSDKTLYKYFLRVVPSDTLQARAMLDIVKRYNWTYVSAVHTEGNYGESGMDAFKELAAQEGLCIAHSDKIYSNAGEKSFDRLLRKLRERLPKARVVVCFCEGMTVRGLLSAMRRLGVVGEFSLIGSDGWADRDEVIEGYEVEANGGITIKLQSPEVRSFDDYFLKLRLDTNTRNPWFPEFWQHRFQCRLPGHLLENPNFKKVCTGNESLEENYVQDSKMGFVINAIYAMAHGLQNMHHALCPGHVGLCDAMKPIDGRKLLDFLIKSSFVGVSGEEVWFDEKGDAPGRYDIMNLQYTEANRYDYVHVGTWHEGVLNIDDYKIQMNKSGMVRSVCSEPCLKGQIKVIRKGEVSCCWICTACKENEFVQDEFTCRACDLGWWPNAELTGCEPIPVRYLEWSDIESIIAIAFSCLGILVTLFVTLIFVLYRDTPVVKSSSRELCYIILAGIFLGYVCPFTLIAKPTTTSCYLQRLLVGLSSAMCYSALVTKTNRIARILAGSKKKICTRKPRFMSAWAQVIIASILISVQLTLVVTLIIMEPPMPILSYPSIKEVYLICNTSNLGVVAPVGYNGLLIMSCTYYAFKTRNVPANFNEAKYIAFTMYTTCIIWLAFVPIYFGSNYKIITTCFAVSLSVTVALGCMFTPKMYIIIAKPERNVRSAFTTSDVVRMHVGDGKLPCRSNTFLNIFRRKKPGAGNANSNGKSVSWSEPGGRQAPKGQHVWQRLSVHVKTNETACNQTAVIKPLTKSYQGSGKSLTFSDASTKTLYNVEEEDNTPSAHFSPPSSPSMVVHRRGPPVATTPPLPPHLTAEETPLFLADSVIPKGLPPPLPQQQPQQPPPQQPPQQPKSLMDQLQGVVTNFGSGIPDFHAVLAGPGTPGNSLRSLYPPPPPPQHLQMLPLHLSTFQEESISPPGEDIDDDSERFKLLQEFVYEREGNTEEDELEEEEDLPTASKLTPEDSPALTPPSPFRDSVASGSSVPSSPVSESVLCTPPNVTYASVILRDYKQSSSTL
# STUDY_CONDITIONS: read-out: mGluR1 IC50
TEST_READOUT: IC50 (nM)
Give the quantity in nM, number only.

Name the reported IC50 value associated with the compound O=C(Nc1ccccc1)C12CC1/C(=N\O)c1ccccc1O2 (racemic) [(±)-PHCCC, PHCCC] 2100
